Just for reference, patent US6797824B2 is where these values come from.

Counter-ions that a name gives are not always drawn.
Property label: melting point

- Compound: "COc1cc(Br)cc(-c2ncc(CN(C)C)[nH]2)c1OC (as salt: hydrochloride) [Compound 16, dihydrochloride]"
  melting point: "194 °C"

[ask] Quick check: melting point of c1ccc(CC2CCN(CC3CCCc4[nH]c(-c5ccccc5)nc43)CC2)cc1 (stereo not drawn) ?
[reply] 189 to 191 °C

[ask] So what does the record say about melting point for "O=C(c1ccccc1)c1ncc(CN2CCN(c3ncccn3)CC2)[nH]1" ?
[reply] 177 to 179 °C

[ask] Can you share its melting point? I mean this compound: "Clc1ccc(N2CCN(Cc3cnc(-c4ccccc4)[nH]3)CC2)cc1Cl"
[reply] 179 to 181 °C

[ask] Looking for the measured melting point of "COc1ccccc1N1CCN(Cc2cnc(-c3ccccc3)[nH]2)CC1" , can you help?
[reply] 105 to 107 °C

[ask] // returns reported melting point for input COc1ccccc1N1CCN(Cc2cnc(-c3cccc(OC)c3OC)[nH]2)CC1 (as salt: hydrochloride) [Compound 21, dihydrochloride]
[reply] 217 to 218 °C
